Reported self-cleavage kobs at 640 uM GlcN6P values for a set of variants
B1: glmS ribozyme (parent)
chain: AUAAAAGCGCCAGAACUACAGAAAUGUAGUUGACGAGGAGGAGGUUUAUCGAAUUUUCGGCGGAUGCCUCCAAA

variants of: B1; test: self-cleavage kobs at 640 uM GlcN6P; higher = faster cleavage; RNA array; conditions: with glucosamine-6-phosphate
Variants at the floor of the assay were thinned out.

Record excerpt, results attached:
SEQUENCE_TEXT | RESULT
AUAAAAACGCCAGAACUACAGAAAUGUAGUUGACGAGGAGGAGAUCUUUCGAAUUUUCGGCGGAUGCCUCCAAA | < 1e-05 s⁻¹
AUAAAAGUGCCAGAACUACAGAAAUGUACUUGACGAGGAGGAGGUUUAUAGAAUUUUCGGCGGAUGCCUCCAAA | < 1e-05 s⁻¹
AUAAAAGCGCCAGAACUACAGAAAUGUAGUUCACGAGAAGGAGGUUUAUGGAAUUUUCGGCGGAUGCCUCCAAA | 0.000119 s⁻¹
AUAAAAGAGCCAGAACUACAGAAAUGUAGUAGACGAGCAUGAGGUUUAUGGAAUUUUCGCCGGAUGCCUCAAAA | < 1e-05 s⁻¹
AUAAAAGCGCAAGAACUACAGAAAUGUAGUUGACGAGGAGGAGAUUUAUCGAAUUUUCGGCGGAUGCAUCCAAA | < 1e-05 s⁻¹

Form field self-cleavage kobs at 640 uM GlcN6P, entry AUAAAAGUGCCAGAACUACAGAAAUGUAGUUGACGAGGAGGAGGUUUAUCGAAUUUUUGGCCGUUGCCUCCAAA : < 1e-05 s⁻¹

Form field self-cleavage kobs at 640 uM GlcN6P, entry AUAAAAGCGCCAGAACUACAGAAAUGUAGUUGACGAGGAGGGGGUUUAUCGAAUUUUCGUCGGAUGCGUCCAAA : < 1e-05 s⁻¹

Form field self-cleavage kobs at 640 uM GlcN6P, entry AUAAAAGCGCCAGAACUACAGAAAUGUAUUUCACGGGGAGGAGGUUUAUCGAAUUUUCGGCGGAUGCCUCCAAA : < 1e-05 s⁻¹

Form field self-cleavage kobs at 640 uM GlcN6P, entry AUAAAAGCGCCAGAACUACAGAAAUGUAGUUGACGAGGAGGGGGUUUAUCGAAUUUUCGGCGGAUACCUCCAAA : 0.00611 s⁻¹

Form field self-cleavage kobs at 640 uM GlcN6P, entry AUAAAAGCGCCAGAACUACAGAAAUGUAGUUGGCGUGCAGGAGGUUUAUCGAAUUUUCGGCGGAUGCCUCCAAA : < 1e-05 s⁻¹

Form field self-cleavage kobs at 640 uM GlcN6P, entry AUAAAAGCGCCAGAACUACAGAAAUGUAGUUGACGAGGAGGAGGUUUAUCUAAUUUUCGGGGGAUGCCUCGAAA : 0.000494 s⁻¹

Form field self-cleavage kobs at 640 uM GlcN6P, entry AUAAAACGCCCAGAACUAAAGAAAUGUAGUUGACGAGGAGGAGGUUUAUCGAAUUUUCGGAGGAUGCCUCCAAA : < 1e-05 s⁻¹

Form field self-cleavage kobs at 640 uM GlcN6P, entry AUAAAAGCGCCAGCUCUACAGAAAUGUAGUUGACGAGGAGGAGGUUUAUCGAAUUUUCGGCGGAUGCCUACAAA : 0.000263 s⁻¹

Form field self-cleavage kobs at 640 uM GlcN6P, entry AUAAAAGCGCCAGAACUACAGAAAUGUAGUUGACGAGGAGGACGUUUUUUGAAUUUUAGGCGGAUGUCUCCAAA : < 1e-05 s⁻¹

Form field self-cleavage kobs at 640 uM GlcN6P, entry AUAAAAGCGCCAGAACUACAGAAAUGUAGUUGAGGAAGAGGAGGUUUAUCGAAUUUUCGGCGGAUGCCUCCAAA : < 1e-05 s⁻¹

Form field self-cleavage kobs at 640 uM GlcN6P, entry AUAAAAGCGCCAGAACUACAGAAAUGUAGUUGACGCGGAGGAGGUUUAUCGAAUUUUCGCCGGAUGCCUCCAAA : < 1e-05 s⁻¹

Form field self-cleavage kobs at 640 uM GlcN6P, entry AUAAAAGAGCCUGAAGUACAGAAAUGUAGUUGACGAGGAGAAGGUUUAUCGAAUUUUCGGCGGAUGCAUCCAAA : < 1e-05 s⁻¹

Form field self-cleavage kobs at 640 uM GlcN6P, entry AUAAAAGCGCCAGAACUACAGAAAUGUAGUUGACAAGGAGGAGGUUUAUGGAAUUUUCGGCGGAUGCCUCCAAA : 0.000273 s⁻¹

Form field self-cleavage kobs at 640 uM GlcN6P, entry AUAAAAGCGCCAGAACUACAGAAAUGUAGUUGACGAGGAGGAGAUUUGUCGAAUUUUCGGCGGAUGCCUCCAAA : < 1e-05 s⁻¹

Form field self-cleavage kobs at 640 uM GlcN6P, entry AUAAAAGCGCCAGAGCUACAGAAAUGUAGUUGACGAGGAUGAGGUUUAUCGAAUUUUCGGCGGAUGCCUACAAA : 0.000328 s⁻¹

Form field self-cleavage kobs at 640 uM GlcN6P, entry AUAAAAGCGCCAGAACUACAGAAAUGUAGUGGACGAGGAGGAGGUUUUUCGAAUGUUCGGCGGGUGCCUCCAAA : 0.0001 s⁻¹

Form field self-cleavage kobs at 640 uM GlcN6P, entry AUAAAAGCGCCAGAACUACAGAAAUGUAGUUUAAGAGGAGGAGAUUUAUCGAAUUUUCGGCGGAUGCAUCCAAA : < 1e-05 s⁻¹

Form field self-cleavage kobs at 640 uM GlcN6P, entry AUAAAAGCGCCAGAACUACAGAAAUGUAGUUGACGAGGACGAGGUUUAUCGGAUUUUCGGCGGAUGCCUCCAAA : 2.38e-05 s⁻¹
